Tested Target: MCL-1 (Homo sapiens, UniProt Q07820)
Sequence (Q07820 whole entry): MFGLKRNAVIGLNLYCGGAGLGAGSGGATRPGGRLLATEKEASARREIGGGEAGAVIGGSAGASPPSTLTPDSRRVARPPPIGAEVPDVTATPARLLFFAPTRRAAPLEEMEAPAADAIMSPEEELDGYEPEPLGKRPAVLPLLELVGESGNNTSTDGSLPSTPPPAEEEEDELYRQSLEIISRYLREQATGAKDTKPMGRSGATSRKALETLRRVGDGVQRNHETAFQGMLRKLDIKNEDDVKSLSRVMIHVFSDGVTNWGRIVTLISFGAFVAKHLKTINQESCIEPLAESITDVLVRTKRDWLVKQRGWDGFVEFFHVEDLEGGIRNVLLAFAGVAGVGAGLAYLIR
Measurement Protocol: Protein-protein interaction assay MCL-1/Noxa BH3 peptide (MCL-1 assay), TR-FRET
Assay type: binding
Condition: MBP-MCL-1 / Noxa BH3-derived peptide, median
For each record, write down the corresponding IC50.
# output: bare number, implied unit nM

// query Hello, I am looking for reported IC50 with MCL-1 (Homo sapiens, UniProt Q07820) for Cc1nn(CCN2CCOCC2)c2c1-c1cccc3c(CCCOc4cccc5ccccc45)c(C(=O)O)n(c13)CCCCOC2 (single isomer, unassigned; enantiomer 1) [Example 096] . Could you help?
// result 1.36

// query Hello, I am looking for reported IC50 with MCL-1 (Homo sapiens, UniProt Q07820) for Cn1nc(COCc2ccc(C#N)cc2)c2c1COCCCCn1c(C(=O)O)c(CCCOc3cccc4ccccc34)c3cccc-2c31 (single isomer, unassigned; enantiomer 2) [Example 348] . Could you help?
// result 19.6

// query Hello, I am looking for reported IC50 with MCL-1 (Homo sapiens, UniProt Q07820) for Cn1nc(CN2CCCC2=O)c2c1COCCCCn1c(C(=O)O)c(CCCOc3cccc4ccccc34)c3cccc-2c31 (single isomer, unassigned; enantiomer 2) [Example 329] . Could you help?
// result 3000

Reference source: patent US10981932B2
